The measured values listed here are drawn from PubChem BioAssay AID1918958.

Give viability, T/C for every item shown.
system: NCI-H196 complex spheroid viability; assay: Anticancer human tumor NCI-H196 cell line growth inhibition [LSD1]; settings: second compound 10 µM; first compound 0.0949 µM; stronger effect = lower value;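 note: spheroids exposed to agents for 7 days before readout; 100% = DMSO vehicle control viability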
Answers are plain numbers, in %.

Example entries begin here.
CCN(c1cc(-c2ccc(CN3CCOCC3)cc2)cc(C(=O)NCc2c(C)cc(C)[nH]c2=O)c1C)C1CCOCC1 + NC1CCC(NC2CC2c2ccccc2)CC1	94.6
Nc1ccccc1NC(=O)c1ccc(CNC(=O)OCc2cccnc2)cc1 + NC1CCC(NC2CC2c2ccccc2)CC1	44.3
Nc1ncn(C2CC(O)C(CO)S2)c(=O)n1 (stereo not given) + NC1CCC(NC2CC2c2ccccc2)CC1	111
COc1cc(C2c3cc4c(cc3C(OC3OC5COC(C)OC5C(O)C3O)C3COC(=O)C23)OCO4)cc(OC)c1O (stereo not given) + NC1CCC(NC2CC2c2ccccc2)CC1	95.5

Here is another compound to look at.
Lookup: Please report the recorded viability, T/C for Nc1ccccc1NC(=O)c1ccc(CNC(=O)OCc2cccnc2)cc1 + NC1CC1c1ccc(-c2cccc(O)c2)cc1 .
Found: 55

---

tested on: NCI-H196 complex spheroid viability; experiment: Anticancer human tumor NCI-H196 cell line growth inhibition [LSD1]; conditions: second compound 0.316 µM; first compound 0.316 µM; stronger effect = lower value;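 note: spheroids exposed to agents for 7 days before readout; 100% = DMSO vehicle control viability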
Give viability, T/C for every item shown.
Numbers only, in %.

O=C(c1cc(Cc2n[nH]c(=O)c3ccccc23)ccc1F)N1CCN(C(=O)C2CC2)CC1 + NC1CC1c1ccc(-c2cccc(O)c2)cc1	86.5
CC1COCCN1c1cc(C2(S(C)(=N)=O)CC2)nc(-c2ccnc3[nH]ccc23)n1 (centres undefined) + NC1CCC(NC2CC2c2ccccc2)CC1	110
O=C(c1cc(Cc2n[nH]c(=O)c3ccccc23)ccc1F)N1CCN(C(=O)C2CC2)CC1 + NC1CCC(NC2CC2c2ccccc2)CC1	97.8
CC(C)c1c(-c2ccccc2)nc2c(C#N)c[nH]n2c1=O + NC1CC1c1ccc(-c2cccc(O)c2)cc1	98
CC1(C)CCC(CN2CCN(c3ccc(C(=O)NS(=O)(=O)c4ccc(NCC5CCOCC5)c([N+](=O)[O-])c4)c(Oc4cnc5[nH]ccc5c4)c3)CC2)=C(c2ccc(Cl)cc2)C1 + NC1CC1c1ccc(-c2cccc(O)c2)cc1	87.1

Hi there! I need viability, T/C for each item below, if you can.
1. COc1ccc([C@@H](O)c2cc(-c3ncnc4cc(N5CCOCC5)ccc34)c(F)cc2Cl)nn1 + NC1CC1c1ccc(-c2cccc(O)c2)cc1
2. O=C(C=Cn1cnc(-c2cc(C(F)(F)F)cc(C(F)(F)F)c2)n1)NNc1cnccn1 + NC1CC1c1ccc(-c2cccc(O)c2)cc1
3. CC1COCCN1c1cc(-c2ccnn2C)c2ccnc(-c3ccn[nH]3)c2n1 (centres undefined) + NC1CC1c1ccc(-c2cccc(O)c2)cc1

Found:
1. 82.7
2. 10.7
3. 45.4

Hi there! I need viability, T/C for each item below, if you can.
1. CC(C)c1c(-c2ccccc2)nc2c(C#N)c[nH]n2c1=O + NC1CCC(NC2CC2c2ccccc2)CC1
2. CC1COCCN1c1cc(-c2ccnn2C)c2ccnc(-c3ccn[nH]3)c2n1 (centres undefined) + NC1CCC(NC2CC2c2ccccc2)CC1
3. Nc1ncn(C2CC(O)C(CO)O2)c(=O)n1 (centres undefined) + NC1CC1c1ccc(-c2cccc(O)c2)cc1
4. Nc1ncn(C2CC(O)C(CO)O2)c(=O)n1 (centres undefined) + NC1CCC(NC2CC2c2ccccc2)CC1
5. COc1cc(Nc2ncc3c(n2)-c2ccc(Cl)cc2C(c2c(F)cccc2OC)=NC3)ccc1C(=O)O + NC1CC1c1ccc(-c2cccc(O)c2)cc1
6. COc1cc(Nc2ncc3c(n2)-c2ccc(Cl)cc2C(c2c(F)cccc2OC)=NC3)ccc1C(=O)O + NC1CCC(NC2CC2c2ccccc2)CC1

Found:
1. 107
2. 51.7
3. 94.2
4. 96.9
5. 120
6. 123
